tested on: MS2 coat protein; test: apparent KD of MS2 coat protein; designed switch direction (-1 OFF switch, 1 ON switch): 1; higher = weaker reporter binding; settings: Eterna round: R98; input ligand: none
Test Readout: apparent KD of MS2 coat protein (nM)
The reply should contain only the number, in nM.

{"Residue Codes": "GGGUGGGUCACAGGAUAUCCCGUGAGCCACAUGAGGAUCACCCAUGUAUCACGACGAAAGAAGAAGGAGAAGGGUGACCCUGAU [Tibiiste]", "apparent KD of MS2 coat protein / nM": 40.7}
{"Residue Codes": "UCACUCACGUUAGGAUAUGGAUCGGAAAACGAUCCAGAAGGAACCUGCAAACCUGAGGAACACCCAGGUUCCAAUAACGAGUGA [SameSame 8 - Jieux - Same State NG 1]", "apparent KD of MS2 coat protein / nM": 839}
{"Residue Codes": "GUCGAAUUCUUAGGAUAUCGAGUGGAAUACACUCGAGAAGGAAGAUAUACCUGAGGAUCACCCAGGUUAAACUGAACGACAAUA [Same State NG1 - A3C, U17G Submission 7C]", "apparent KD of MS2 coat protein / nM": 17.6}

Which measured apparent KD of MS2 coat protein value corresponds to GGUCCAACAUGAGGAUAUGGCACCUUAUUGGUGCCAGAAGGCGUGUCGAUAGACAUGAGGAUCACCCAUGUAAUAAAUUGGACC [SameState #23 NG1] ?
467

Do the same for AAAAUAUAAUAUAUUAACAUGAGGAUCACCCAUGUCGCUAGACAGGAUAUAUAAAAUAAAAUAAAGUAGAAGGGUCAUAUAAUA [LRO003_SS NG 3] please
56.4

Do the same for ACGUUAAUUCGAGGAUAUCGGUGAUUUAUAUUACGAGAAGGCGAUAAUUGUGAACAACUUAUAGACAUGAGGAUCACCCAUGUA [JR_SSNG1_Sub065] please
28.6

Do the same for CGGAUCGCAUGAGGAUAUGGUCAGCUUUGCUGACCAGAAGGCAUGUCAAUAGACAUGAGGAUCACCCAUGUAGUUAAGAUCCGA [Mat - Same State NG 1 - JL Mod - D17] please
644
